# tested.target: human Tissue Factor (TF) (human, UniProt P13726 33-295)
# measurement.description: cell-based or functional assay
observation.type: % IL8 at 40 nM antibody (%)
Note: unit % is implicit; provide only the numeric part.

Consider the worked cases shown below.
binder | unit.abbrev | experimental.value
43D (antibody, human IgG1, V domains shown) VH: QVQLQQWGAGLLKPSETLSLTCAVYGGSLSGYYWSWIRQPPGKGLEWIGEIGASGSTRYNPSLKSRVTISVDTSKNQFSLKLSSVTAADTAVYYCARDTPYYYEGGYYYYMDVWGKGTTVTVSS VL: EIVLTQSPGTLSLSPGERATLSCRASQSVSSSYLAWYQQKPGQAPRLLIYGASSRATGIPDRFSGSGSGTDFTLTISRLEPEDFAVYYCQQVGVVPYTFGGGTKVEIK | % | 5
43B (antibody, human IgG1, V domains shown) VH: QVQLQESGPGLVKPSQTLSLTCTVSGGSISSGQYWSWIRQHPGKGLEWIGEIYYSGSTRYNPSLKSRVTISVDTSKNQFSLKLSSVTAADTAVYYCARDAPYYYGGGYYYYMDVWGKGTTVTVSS VL: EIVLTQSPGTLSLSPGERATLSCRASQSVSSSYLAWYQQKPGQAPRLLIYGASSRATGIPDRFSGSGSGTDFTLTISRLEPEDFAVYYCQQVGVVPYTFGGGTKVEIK | % | 4

Look up % IL8 at 40 nM antibody of 54E (antibody, human IgG1, V domains shown, Human IgG1; also called antibody designated 54E) VH: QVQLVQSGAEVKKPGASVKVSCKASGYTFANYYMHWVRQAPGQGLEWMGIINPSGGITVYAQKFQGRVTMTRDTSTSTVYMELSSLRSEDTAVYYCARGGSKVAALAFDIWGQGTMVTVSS VL: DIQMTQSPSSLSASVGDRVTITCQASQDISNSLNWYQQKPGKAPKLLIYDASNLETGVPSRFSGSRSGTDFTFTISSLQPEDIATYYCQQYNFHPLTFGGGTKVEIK and report it.
2
